- Tested on: Rattus norvegicus
- test description: In vivo mean occlusion time for the antithrombic activity in rat arterial thrombosis model
- Format: functional
Answer each item with its documented MOT.

Quick one: MOT for N=C(N)N1CCC([C@H](NC(=O)[C@@H]2CC[C@H]3CN(C(=O)CCc4ccccc4)CC(=O)N32)C(=O)c2nccs2)CC1 ?
57 min

Quick one: MOT for N=C(N)N1CCCC(C[C@@H](NC(=O)[C@@H]2CC[C@H]3CN(C(=O)CCc4ccccc4)CC(=O)N32)C(=O)c2nccs2)C1 (stereo partly specified) ?
27 min

Quick one: MOT for N=C(N)c1cccc(C[C@H](NC(=O)[C@@H]2CC[C@H]3CN(C(=O)CCc4ccccc4)CC(=O)N32)C(=O)c2nccs2)c1 ?
18 min

Quick one: MOT for N=C(N)N1CCCC(C[C@H](NC(=O)[C@@H]2CC[C@H]3CN(C(=O)CCc4ccccc4)CC(=O)N32)C(=O)c2nccs2)C1 (stereo partly specified) ?
>60 min

Quick one: MOT for N[C@H]1CC[C@H]([C@H](NC(=O)[C@@H]2CC[C@H]3CN(C(=O)CCc4ccccc4)CC(=O)N32)C(=O)c2nccs2)CC1 ?
48 min

Quick one: MOT for N=C(N)NCCC[C@H](NC(=O)[C@@H]1CC[C@H]2CN(C(=O)CCc3ccccc3)CC(=O)N21)C(=O)c1nccs1 ?
42 min

* * *

Answer each item with its documented IC50.
Write the quantity with the unit trailing the number.

Hello, I am looking for reported IC50 with Serine protease 1 (Homo sapiens, UniProt P07477) for N[C@H]1CC[C@H]([C@H](NC(=O)[C@@H]2CC[C@H]3CN(C(=O)CCc4ccccc4)CC(=O)N32)C(=O)c2nccs2)CC1 . Could you help?
8.99 µM

Hello, I am looking for reported IC50 with Serine protease 1 (Homo sapiens, UniProt P07477) for N=C(N)N1CCC([C@H](NC(=O)[C@@H]2CC[C@H]3CN(C(=O)CCc4ccccc4)CC(=O)N32)C(=O)c2nccs2)CC1 . Could you help?
11.9 µM

Hello, I am looking for reported IC50 with Serine protease 1 (Homo sapiens, UniProt P07477) for N=C(N)N1CCCC(C[C@@H](NC(=O)[C@@H]2CC[C@H]3CN(C(=O)CCc4ccccc4)CC(=O)N32)C(=O)c2nccs2)C1 (some centres undefined) . Could you help?
31.6 µM

Hello, I am looking for reported IC50 with Serine protease 1 (Homo sapiens, UniProt P07477) for N=C(N)N1CCCC(C[C@H](NC(=O)[C@@H]2CC[C@H]3CN(C(=O)CCc4ccccc4)CC(=O)N32)C(=O)c2nccs2)C1 (some centres undefined) . Could you help?
4.36 µM

* * *

Answer each item with its documented log10 of IC50.
On a log10 scale: recorded IC50, unit nM.

Hello, I am looking for reported log10 of IC50 with Prothrombin (Homo sapiens) for N=C(N)N1CCCC(C[C@@H](NC(=O)[C@@H]2CC[C@H]3CN(C(=O)CCc4ccccc4)CC(=O)N32)C(=O)c2nccs2)C1 (stereo not given in full) . Could you help?
2.14

Hello, I am looking for reported log10 of IC50 with Prothrombin (Homo sapiens) for N=C(N)N1CCC([C@H](NC(=O)[C@@H]2CC[C@H]3CN(C(=O)CCc4ccccc4)CC(=O)N32)C(=O)c2nccs2)CC1 . Could you help?
0.00

Hello, I am looking for reported log10 of IC50 with Prothrombin (Homo sapiens) for N=C(N)N1CCCC(C[C@H](NC(=O)[C@@H]2CC[C@H]3CN(C(=O)CCc4ccccc4)CC(=O)N32)C(=O)c2nccs2)C1 (stereo not given in full) . Could you help?
1.48

Hello, I am looking for reported log10 of IC50 with Prothrombin (Homo sapiens) for N[C@H]1CC[C@H]([C@H](NC(=O)[C@@H]2CC[C@H]3CN(C(=O)CCc4ccccc4)CC(=O)N32)C(=O)c2nccs2)CC1 . Could you help?
1.52

Hello, I am looking for reported log10 of IC50 with Prothrombin (Homo sapiens) for N=C(N)N1CCC([C@@H](NC(=O)[C@@H]2CC[C@H]3CN(C(=O)CCc4ccccc4)CC(=O)N32)C(=O)c2nccs2)CC1 . Could you help?
2.18
